assay: in vivo; conditions: BALB/c, mouse, po, 20 mg/kg
measured.metric: half-life

### Prompt // lookup half-life for N#C[C@@]1(c2ccc3c(N)ncnn23)O[C@H](CO)[C@@H](O)[C@H]1O [GS-441524, reference compound]
### Response ~1 h

---

assay: in vitro; settings: human, % Cytotoxicity (Fig1E), drug 1.11111 µM
measured.metric: cytotoxicity
Please provide the amount together with its unit, number first.

### Prompt // lookup cytotoxicity for CC(C)C(=O)OCC1OC(C#N)(c2ccc3c(N)ncnn23)C(OC(=O)C(C)C)C1OC(=O)C(C)C (stereo not shown)
### Response -1.19%

---

test: in vitro; settings: human, % Cytotoxicity (Fig1E), drug 0.00152 µM
Can you tell me cytotoxicity for the items I'm about to list?

### Prompt // lookup cytotoxicity for N#C[C@@]1(c2ccc3c(N)ncnn23)O[C@H](CO)[C@@H](O)[C@H]1O [GS-441524, reference compound]
### Response 4.91%

### Prompt // lookup cytotoxicity for CC(C)C(=O)OCC1OC(C#N)(c2ccc3c(N)ncnn23)C(OC(=O)C(C)C)C1OC(=O)C(C)C (centres unmarked)
### Response 5.08%

---

system: SARS-CoV-2 nLUC; test: microbe, parasite or virus in culture; type: cell-based; conditions: Severe acute respiratory syndrome coronavirus 2; read-out: Average EC50 (nM) A549-hACE2
measured.metric: EC50 (nM)
Your answer is read as nM, so omit the unit and give the number.

### Prompt Form field - read-out: EC50; system: SARS-CoV-2 nLUC; submitted item: CCC(CC)COC(=O)[C@H](C)N[P@](=O)(OC[C@H]1O[C@@](C#N)(c2ccc3c(N)ncnn23)[C@H](O)[C@@H]1O)Oc1ccccc1 [RDV, remdesivir, reference compound]
### Response 294

### Prompt Form field - read-out: EC50; system: SARS-CoV-2 nLUC; submitted item: CC(C)C(=O)OCC1OC(C#N)(c2ccc3c(N)ncnn23)C(OC(=O)C(C)C)C1OC(=O)C(C)C (stereo not drawn)
### Response 2800

### Prompt Form field - read-out: EC50; system: SARS-CoV-2 nLUC; submitted item: N#C[C@@]1(c2ccc3c(N)ncnn23)O[C@H](CO)[C@@H](O)[C@H]1O [GS-441524, reference compound]
### Response 3370

---

Can you tell me cytotoxicity for the items I'm about to list?
assay: in vitro; details: human, % Cytotoxicity (Fig1E), drug 0.12346 µM
Your answer is read as %, so omit the unit and give the number.

### Prompt // lookup cytotoxicity for N#C[C@@]1(c2ccc3c(N)ncnn23)O[C@H](CO)[C@@H](O)[C@H]1O [GS-441524, reference compound]
### Response 5.66

### Prompt // lookup cytotoxicity for CC(C)C(=O)OCC1OC(C#N)(c2ccc3c(N)ncnn23)C(OC(=O)C(C)C)C1OC(=O)C(C)C (centres unmarked) [GS-621763]
### Response 6.43
